- targetUnderTest: Keap1/Nrf2 (Homo sapiens)
- runDescription: Inhibition of Keap1-Nrf2 protein-protein interaction (unknown origin) by TR-FRET assay
pIC50: −log10 of the molar value.
parameterMeasured: pIC50

(A) Cc1ccc(S(=O)(=O)N(CC(=O)O)c2cc(CCC(=O)O)c(N(CC(=O)O)S(=O)(=O)c3ccc(C)cc3)c3ccccc23)cc1
(B) Cc1ccc(S(=O)(=O)N(CC(=O)O)c2ccc(N(CC(=O)O)S(=O)(=O)c3ccc(C)cc3)c(O[C@@H](C)C(=O)O)c2)cc1
[ask] Parameter check: reported pIC50 is higher for which label, A or B ? Your choice should be expressed through its label.
[reply] A
(A: 7.65, B: 7.14)

* * *

- targetUnderTest: Keap1/Nrf2 (Homo sapiens, UniProt Q16236+Q14145)
- Sequence (Q16236 whole entry): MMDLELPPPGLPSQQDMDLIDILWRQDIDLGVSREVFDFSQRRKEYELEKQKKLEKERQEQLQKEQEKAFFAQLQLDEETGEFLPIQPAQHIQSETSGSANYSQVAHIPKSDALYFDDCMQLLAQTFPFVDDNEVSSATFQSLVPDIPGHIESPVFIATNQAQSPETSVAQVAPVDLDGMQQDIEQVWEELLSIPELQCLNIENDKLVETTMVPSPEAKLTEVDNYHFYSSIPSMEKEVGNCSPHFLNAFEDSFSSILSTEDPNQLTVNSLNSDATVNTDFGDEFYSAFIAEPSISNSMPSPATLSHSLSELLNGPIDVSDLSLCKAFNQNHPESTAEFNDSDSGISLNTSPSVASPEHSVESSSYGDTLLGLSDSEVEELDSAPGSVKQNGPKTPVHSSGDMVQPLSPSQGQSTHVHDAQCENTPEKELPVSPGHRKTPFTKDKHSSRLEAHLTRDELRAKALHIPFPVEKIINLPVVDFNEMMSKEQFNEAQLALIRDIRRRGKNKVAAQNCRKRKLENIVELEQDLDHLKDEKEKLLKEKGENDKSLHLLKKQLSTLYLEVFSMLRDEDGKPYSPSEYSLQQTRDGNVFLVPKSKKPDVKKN
- Sequence (Q14145 whole entry): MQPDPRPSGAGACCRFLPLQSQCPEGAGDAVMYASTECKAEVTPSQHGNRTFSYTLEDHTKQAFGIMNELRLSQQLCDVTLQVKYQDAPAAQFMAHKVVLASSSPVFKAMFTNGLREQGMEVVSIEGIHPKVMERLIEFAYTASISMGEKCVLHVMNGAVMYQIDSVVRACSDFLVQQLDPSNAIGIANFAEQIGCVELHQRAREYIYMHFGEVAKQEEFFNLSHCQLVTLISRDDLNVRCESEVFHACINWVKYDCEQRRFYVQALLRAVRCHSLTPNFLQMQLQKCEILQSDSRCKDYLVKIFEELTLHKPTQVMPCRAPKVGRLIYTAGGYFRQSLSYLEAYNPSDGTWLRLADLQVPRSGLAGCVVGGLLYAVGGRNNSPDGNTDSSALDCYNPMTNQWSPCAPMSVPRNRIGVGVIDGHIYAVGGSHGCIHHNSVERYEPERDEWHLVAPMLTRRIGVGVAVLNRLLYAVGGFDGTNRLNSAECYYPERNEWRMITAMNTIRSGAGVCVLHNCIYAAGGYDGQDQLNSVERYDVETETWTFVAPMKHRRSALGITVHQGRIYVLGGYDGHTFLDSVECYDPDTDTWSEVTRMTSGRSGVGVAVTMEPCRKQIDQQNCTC
- runDescription: Inhibition of Keap1-Nrf2 protein-protein interaction (unknown origin) assessed as inhibition constant by TR-FRET assay
parameterMeasured: Ki (µM)
Return type: number; implicit unit µM.

[ask] # return recorded Ki for entry `Cc1ccc(S(=O)(=O)N(CC(=O)O)c2ccc(N(CC(=O)O)S(=O)(=O)c3ccc(C)cc3)c(O[C@H](C)C(=O)O)c2)cc1`
[reply] 0.0414

* * *

- targetUnderTest: Keap1/Nrf2 (Homo sapiens)
- runDescription: Inhibition of Keap1-Nrf2 protein-protein interaction (unknown origin) assessed as inhibition constant by TR-FRET assay
pKi: −log10 of the molar value.
parameterMeasured: pKi

Some entries whose results are on file:
smilesStr | pKi
COc1ccc(S(=O)(=O)N(CC(=O)O)c2ccc(N(CC(=O)O)S(=O)(=O)c3ccc(OC)cc3)c(OS(=O)(=O)c3ccccc3)c2)cc1 | 7.13
COc1ccc(S(=O)(=O)N(CC(=O)O)c2ccc(N(CC(=O)O)S(=O)(=O)c3ccc(OC)cc3)c(C(=O)Oc3ccccc3)c2)cc1 | 6.11
COc1ccc(S(=O)(=O)N(CC(=O)O)c2ccc(N(CC(=O)O)S(=O)(=O)c3ccc(OC)cc3)c(OCCN3CCOCC3)c2)cc1 | 6.30
Cc1ccc(S(=O)(=O)N(CC(=O)O)c2ccc(N(CC(=O)O)S(=O)(=O)c3ccc(C)cc3)c(O[C@@H](C)C(=O)O)c2)cc1 | 7.49

(P) COc1ccc(S(=O)(=O)N(CC(=O)O)c2ccc(N(CC(=O)O)S(=O)(=O)c3ccc(OC)cc3)c(OS(=O)(=O)c3c(C)cc(C)cc3C)c2)cc1
(Q) COc1ccc(S(=O)(=O)N(CC(=O)O)c2ccc(N(CC(=O)O)S(=O)(=O)c3ccc(OC)cc3)c(OCC(=O)Nc3ccccc3)c2)cc1
[ask] Just tell me: smaller pKi value, P or Q ? Answer format: the label of the selected item.
[reply] Q

* * *

- targetUnderTest: Keap1/Nrf2 (Homo sapiens, UniProt Q14145)
- Sequence (Q16236 whole entry): as the sequence (Q16236 whole entry) above
- Sequence (Q14145 whole entry): as the sequence (Q14145 whole entry) above
- runDescription: Inhibition of Keap1-Nrf2 protein-protein interaction (unknown origin) by fluorescence polarization assay
pIC50: −log10 of the molar value.
parameterMeasured: pIC50

Solved entries (count: 2):
smilesStr | pIC50
COc1ccc(S(=O)(=O)N(CC(=O)O)c2ccc(N(CC(=O)O)S(=O)(=O)c3ccc(OC)cc3)c(OCC(=O)c3ccccc3)c2)cc1 | 6.23
COc1ccc(S(=O)(=O)N(CC(=O)O)c2ccc(N(CC(=O)O)S(=O)(=O)c3ccc(OC)cc3)c(OCC(=O)N3CCN(C)CC3)c2)cc1 | 5.65

(a) Cc1ccc(S(=O)(=O)N(CC(=O)O)c2ccc(N(CC(=O)O)S(=O)(=O)c3ccc(C)cc3)c(OCC(=O)N3CCOCC3)c2)cc1
(b) COc1ccc(S(=O)(=O)N(CC(=O)O)c2ccc(N(CC(=O)O)S(=O)(=O)c3ccc(OC)cc3)c(OCC(=O)N3CCOCC3)c2)cc1
[ask] Please tell me which of the two, a or b , has the higher reported pIC50 value. Record your answer as the label of the chosen record.
[reply] b
(b: 6.40, a: 6.19)

* * *

- targetUnderTest: Keap1/Nrf2 (Homo sapiens, UniProt Q14145)
- runDescription: Inhibition of Keap1-Nrf2 protein-protein interaction (unknown origin) assessed as inhibition constant by TR-FRET assay
pKi: −log10 of the molar value.
parameterMeasured: pKi

(1) COc1ccc(S(=O)(=O)N(CC(=O)O)c2ccc(N(CC(=O)O)S(=O)(=O)c3ccc(OC)cc3)c(OCC(=O)N3CCOCC3)c2)cc1
(2) COc1ccc(S(=O)(=O)N(CC(=O)O)c2ccc(N(CC(=O)O)S(=O)(=O)c3ccc(OC)cc3)c(C(=O)OCc3ccccc3)c2)cc1
(3) COc1ccc(S(=O)(=O)N(CC(=O)O)c2ccc(N(CC(=O)O)S(=O)(=O)c3ccc(OC)cc3)c(OCC(=O)N3CCC(c4ccccc4)CC3)c2)cc1
[ask] With regard to pKi, arrange the entries in ascending order, please. To answer, arrange all of the labels according to the requested order.
[reply] 2, 3, 1
(2: 6.50, 3: 6.85, 1: 7.18)

* * *

- targetUnderTest: Keap1/Nrf2 (Homo sapiens)
- runDescription: Inhibition of Keap1-Nrf2 protein-protein interaction (unknown origin) assessed as inhibition constant by TR-FRET assay
pKi: −log10 of the molar value.
parameterMeasured: pKi

smilesStr | targetUnderTest | pKi
COc1ccc(S(=O)(=O)N(CC(=O)O)c2ccc(N(CC(=O)O)S(=O)(=O)c3ccc(OC)cc3)c(OS(=O)(=O)c3ccc(-c4ccccc4)cc3)c2)cc1 | Keap1/Nrf2 (Homo sapiens) | 7.11
COc1ccc(S(=O)(=O)N(CC(=O)O)c2ccc(N(CC(=O)O)S(=O)(=O)c3ccc(OC)cc3)c(OCC(=O)N3CCN(C)CC3)c2)cc1 | Keap1/Nrf2 (Homo sapiens) | 6.34

(1) Cc1ccc(S(=O)(=O)N(CC(=O)O)c2cc(CCC(=O)O)c(N(CC(=O)O)S(=O)(=O)c3ccc(C)cc3)c3ccccc23)cc1
(2) COc1ccc(S(=O)(=O)N(CC(=O)O)c2ccc(N(CC(=O)O)S(=O)(=O)c3ccc(OC)cc3)c(OC(=O)c3ccccc3)c2)cc1
(3) COc1ccc(S(=O)(=O)N(CC(=O)O)c2ccc(N(CC(=O)O)S(=O)(=O)c3ccc(OC)cc3)c(OCC(=O)c3ccccc3)c2)cc1
[ask] Please order the records by their reported pKi, lowest number first. Provide your answer as the labels ordered per the instruction.
[reply] 2, 3, 1
(2: 6.45, 3: 6.97, 1: 8.04)

* * *

- targetUnderTest: Keap1/Nrf2 (Homo sapiens, UniProt Q14145)
- runDescription: Inhibition of Keap1-Nrf2 protein-protein interaction (unknown origin) by fluorescence polarization assay
pIC50: −log10 of the molar value.
parameterMeasured: pIC50

Reference set, count: 4
smilesStr | pIC50
Cc1ccc(S(=O)(=O)N(CC(=O)O)c2cc(CCC(=O)O)c(N(CC(=O)O)S(=O)(=O)c3ccc(C)cc3)c3ccccc23)cc1 | 7.16
COc1ccc(S(=O)(=O)N(CC(=O)O)c2ccc(N(CC(=O)O)S(=O)(=O)c3ccc(OC)cc3)c(OCC(=O)N3CCC(c4ccccc4)CC3)c2)cc1 | 6.12
COc1ccc(S(=O)(=O)N(CC(=O)O)c2ccc(N(CC(=O)O)S(=O)(=O)c3ccc(OC)cc3)c(OS(=O)(=O)c3ccccc3)c2)cc1 | 6.36
COc1ccc(S(=O)(=O)N(CC(=O)O)c2ccc(N(CC(=O)O)S(=O)(=O)c3ccc(OC)cc3)c(OCCN3CCOCC3)c2)cc1 | 5.60

(I) Cc1ccc(S(=O)(=O)N(CC(=O)O)c2ccc(N(CC(=O)O)S(=O)(=O)c3ccc(C)cc3)c(OS(=O)(=O)c3c(C)cc(C)cc3C)c2)cc1
(II) COc1ccc(S(=O)(=O)N(CC(=O)O)c2ccc(N(CC(=O)O)S(=O)(=O)c3ccc(OC)cc3)c(OCC(=O)Nc3ccccc3)c2)cc1
(III) Cc1ccc(S(=O)(=O)N(CC(=O)O)c2ccc(N(CC(=O)O)S(=O)(=O)c3ccc(C)cc3)c(NCC(=O)O)c2)cc1
[ask] Sequence the entries by pIC50, beginning with the highest number. Sort and list the labels as requested.
[reply] I, III, II
(I: 6.39, III: 5.75, II: 5.11)

(1) COc1ccc(S(=O)(=O)N(CC(=O)O)c2ccc(N(CC(=O)O)S(=O)(=O)c3ccc(OC)cc3)c(OC(=O)c3ccccc3)c2)cc1
(2) COc1ccc(S(=O)(=O)N(CC(=O)O)c2ccc(N(CC(=O)O)S(=O)(=O)c3ccc(OC)cc3)c(C(=O)Oc3ccccc3)c2)cc1
(3) Cc1ccc(S(=O)(=O)N(CC(=O)O)c2ccc(N(CC(=O)O)S(=O)(=O)c3ccc(C)cc3)c(O[C@@H](C)C(=O)O)c2)cc1
[ask] Sort by pIC50, descending. Note for the reader: the ranking is given by listing the labels in the order requested.
[reply] 3, 1, 2

(P) Cc1ccc(S(=O)(=O)N(CC(=O)O)c2ccc(N(CC(=O)O)S(=O)(=O)c3ccc(C)cc3)c(CCC(=O)O)c2)cc1
(Q) COc1ccc(S(=O)(=O)N(CC(=O)O)c2ccc(N(CC(=O)O)S(=O)(=O)c3ccc(OC)cc3)c(C(=O)OCc3ccccc3)c2)cc1
(R) Cc1ccc(S(=O)(=O)N(CC(=O)O)c2ccc(N(CC(=O)O)S(=O)(=O)c3ccc(C)cc3)c(OCCN3C(=O)c4ccccc4C3=O)c2)cc1
[ask] // smallest pIC50 at index 0, largest at the end Would you mind listing the labels in the order asked for?
[reply] Q, P, R
(Q: 5.79, P: 6.25, R: 6.64)
